Recorded pEC50 by entry
Biological target: human GIP receptor (hGIPR) (Homo sapiens)
Construct: expressed in transfected cells
Sequence (P48546 22-466): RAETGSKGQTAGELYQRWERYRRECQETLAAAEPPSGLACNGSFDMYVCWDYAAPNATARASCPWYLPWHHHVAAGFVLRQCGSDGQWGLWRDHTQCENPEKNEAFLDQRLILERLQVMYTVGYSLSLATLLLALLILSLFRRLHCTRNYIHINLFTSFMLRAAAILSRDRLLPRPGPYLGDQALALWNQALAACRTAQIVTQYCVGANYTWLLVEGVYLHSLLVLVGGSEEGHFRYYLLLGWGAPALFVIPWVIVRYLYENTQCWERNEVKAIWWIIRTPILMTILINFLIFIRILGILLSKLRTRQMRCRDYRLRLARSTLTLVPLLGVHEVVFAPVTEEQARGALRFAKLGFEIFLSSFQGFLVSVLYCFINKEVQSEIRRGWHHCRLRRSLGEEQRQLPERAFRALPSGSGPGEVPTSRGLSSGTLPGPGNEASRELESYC
Test: GIP receptor assay, method A (CRE-luciferase reporter, BHK cells)
Format: cell-based
Conditions: hGIPR Potency, 1% HSA, EC50, method A, in the presence of 1% HSA
Protocol: To assess how the activation of the receptors is potentially influenced by the presence of human serum albumin (HSA), the in vitro assays were performed in the absence of HSA and presence of 1% (w/v) HSA. Unless stated otherwise the reference to the “GIP receptor assay as described in Example 4” throughout the specification shall refer to the described herein assay procedure method A (hGIPR assay) in the absence of HSA. […]
pEC50: −log10 of the molar value. Numbered stars: 1 amine (or outer) side, 2 acyl side, 3 side chain; on linkers, the order of the positions; unused ones are H or OH. Square brackets hold non-standard residues; d marks the D form. Side chains are listed from the residue outwards. * marks the point of attachment. C20 diacid = O=C(O)CCCCCCCCCCCCCCCCCCC(=O)*; C18 diacid = O=C(O)CCCCCCCCCCCCCCCCC(=O)*; γGlu = O=C(O)[C@H](CCC(=O)[*:2])N[*:1]; AEEA = NCCOCCOCC(=O)O; Aib = CC(C)(N)C(=O)O
Endpoint Label: pEC50

H[Aib]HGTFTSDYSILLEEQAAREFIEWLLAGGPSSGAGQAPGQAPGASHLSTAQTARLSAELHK([AEEA-AEEA-γGlu-C20 diacid])LATLPRTETGSGSP-NH2 [Compound 104] : 10.76
H[Aib]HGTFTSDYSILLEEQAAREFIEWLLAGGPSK([AEEA-AEEA-γGlu-C18 diacid])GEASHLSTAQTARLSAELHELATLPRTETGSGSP-NH2 [Compound 36] : 9.65
Y[Aib]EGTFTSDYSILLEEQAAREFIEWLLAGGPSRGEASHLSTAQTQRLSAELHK([AEEA-AEEA-γGlu-C18 diacid])LATLPRTETGSGSP-NH2 [compound 68] : 10.92
Y[Aib]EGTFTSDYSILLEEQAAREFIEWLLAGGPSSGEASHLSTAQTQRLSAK([AEEA-AEEA-γGlu-C18 diacid])LHRLATLPRTETGSGSP-NH2 [Compound 79] : 10.61
H[Aib]HGTFTSDYSILLEEQAAREFIEWLLAGGPSSGEASHLSTAALGRLSAELHRLATLPK([AEEA-AEEA-γGlu-C18 diacid])TETGSGSP-NH2 [Compound 90] : 10.49
Y[Aib]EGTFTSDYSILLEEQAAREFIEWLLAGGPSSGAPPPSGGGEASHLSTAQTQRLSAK([AEEA-AEEA-γGlu-C18 diacid])LHRLATLPRTETGSGSP-NH2 [Compound 109] : 10.76
Y[Aib]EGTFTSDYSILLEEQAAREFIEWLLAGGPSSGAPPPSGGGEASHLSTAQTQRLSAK([AEEA-AEEA-γGlu-C20 diacid])LHRLATLPRTETGSGSP-NH2 [Compound 110] : 10.53
H[Aib]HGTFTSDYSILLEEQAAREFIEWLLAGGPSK([AEEA-AEEA-γGlu-C18 diacid])GEASQLSTAALGRLSAELHRLATLPRTETGSGSP-NH2 [Compound 73] : 10.02
H[Aib]HGTFTSDYSILLEEQAAREFIEWLLAGGPSSGAGQAPGQAPLASHLSTAQTQRLSAELHK([AEEA-AEEA-γGlu-C18 diacid])LATLPRTETGSGSP-NH2 [Compound 93] : 11.07
H[Aib]HGTFTSDYSILLEEQAAREFIEWLLAGGPSSGEASHLSTAQTQRLSAK([AEEA-AEEA-γGlu-C18 diacid])LHRLATLPRTETGSGSP-NH2 [Compound 82] : 10.72
H[Aib]HGTFTSDYSILLEEQAAREFIEWLLAGGPSSGAGQAPGQAPGASHLSTAQTQRLSAK([AEEA-AEEA-γGlu-C18 diacid])LHRLATLPRTETGSGSP-NH2 [Compound 78] : 10.98

---

Recorded Food intake (relative to vehicle) Day 3 by entry
test system: Male Sprague Dawley (SD) rats; assay: Efficacy testing on appetite: acute food intake in ad libitum fed normal weight rats; format: in vivo, rat; settings: single dose 30 nmol/kg, day 3 [48-72 hours]
Numbered stars: 1 amine (or outer) side, 2 acyl side, 3 side chain; on linkers, the order of the positions; unused ones are H or OH. Square brackets hold non-standard residues; d marks the D form. Side chains are listed from the residue outwards. * marks the point of attachment. C20 diacid = O=C(O)CCCCCCCCCCCCCCCCCCC(=O)*; C18 diacid = O=C(O)CCCCCCCCCCCCCCCCC(=O)*; C16 diacid = O=C(O)CCCCCCCCCCCCCCC(=O)*; γGlu = O=C(O)[C@H](CCC(=O)[*:2])N[*:1]; AEEA = NCCOCCOCC(=O)O; Aib = CC(C)(N)C(=O)O
Endpoint Label: Food intake (relative to vehicle) Day 3 (%)

Y[Aib]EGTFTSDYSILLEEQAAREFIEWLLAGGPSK([AEEA-AEEA-γGlu-C18 diacid])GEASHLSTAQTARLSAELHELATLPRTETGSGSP-NH2 [Compound 35] : −16
Y[Aib]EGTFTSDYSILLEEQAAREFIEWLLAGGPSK([AEEA-AEEA-γGlu-C18 diacid])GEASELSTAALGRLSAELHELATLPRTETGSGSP-NH2 [Compound 26] : 0
Y[Aib]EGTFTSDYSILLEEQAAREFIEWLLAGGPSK([AEEA-AEEA-γGlu-C16 diacid])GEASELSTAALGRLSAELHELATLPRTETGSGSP-NH2 [Compound 11] : −27
H[Aib]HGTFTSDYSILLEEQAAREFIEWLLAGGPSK([AEEA-AEEA-γGlu-C20 diacid])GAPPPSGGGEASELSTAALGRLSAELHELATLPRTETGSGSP-NH2 [Compound 16] : −17
